Biological target: panel of 255 wild-type kinases (Homo sapiens)
Sequence (Q15139 1-912): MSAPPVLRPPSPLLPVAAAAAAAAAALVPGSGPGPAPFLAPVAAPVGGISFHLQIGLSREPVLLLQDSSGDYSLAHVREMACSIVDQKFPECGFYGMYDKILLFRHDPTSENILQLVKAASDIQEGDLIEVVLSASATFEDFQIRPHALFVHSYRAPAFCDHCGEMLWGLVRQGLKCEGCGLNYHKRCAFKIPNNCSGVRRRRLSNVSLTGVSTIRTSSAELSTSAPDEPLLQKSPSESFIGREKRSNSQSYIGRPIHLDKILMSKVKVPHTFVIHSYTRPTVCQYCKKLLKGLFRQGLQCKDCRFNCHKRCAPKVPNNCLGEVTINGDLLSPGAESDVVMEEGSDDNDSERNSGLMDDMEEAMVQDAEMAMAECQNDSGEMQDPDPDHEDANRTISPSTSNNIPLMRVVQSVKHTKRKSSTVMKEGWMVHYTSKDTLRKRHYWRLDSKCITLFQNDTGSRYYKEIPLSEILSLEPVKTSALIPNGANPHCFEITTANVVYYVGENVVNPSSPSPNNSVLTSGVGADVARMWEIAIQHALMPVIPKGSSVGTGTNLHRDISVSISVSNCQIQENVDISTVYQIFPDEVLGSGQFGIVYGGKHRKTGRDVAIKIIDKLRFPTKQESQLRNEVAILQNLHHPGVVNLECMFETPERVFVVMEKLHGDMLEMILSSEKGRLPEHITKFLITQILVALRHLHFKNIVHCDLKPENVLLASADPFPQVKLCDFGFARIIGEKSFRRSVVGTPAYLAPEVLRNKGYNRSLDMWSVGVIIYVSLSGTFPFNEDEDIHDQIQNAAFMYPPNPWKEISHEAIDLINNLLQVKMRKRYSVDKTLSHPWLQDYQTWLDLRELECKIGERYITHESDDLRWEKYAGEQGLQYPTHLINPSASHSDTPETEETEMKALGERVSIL
Experiment: Kinase panel profiling at 1 µmol/L (MSA or IMAP), percentage inhibition
Type: biochemical
Settings: kinase PKD1; 1 µmol/L single concentration; read-out: %-inhibition at 1 µmol/L, PKD1
PROPERTY LABEL: inhibition at 1 µM (%)
# unit: % | format: bare number

{"columns": ["STRUCTURE SMILES", "UNITS TEXT", "inhibition at 1 µM"],
 "data": [
  ["COc1ccc(CN2C3CC2CN(c2ccc(-c4cc(OCC(C)(C)O)cn5ncc(C#N)c45)cn2)C3)cn1", "%", 3.64],
  ["COc1cc2ncnc(Nc3ccc(F)c(Cl)c3)c2cc1NC(=O)/C=C/CN1CCCCC1", "%", 9.49]
]}

Enquiry: Find the recorded inhibition at 1 µM belonging to `Cc1cc(Nc2ncnc3ccc(NC4=NC(C)(C)CO4)cc23)ccc1Oc1ccn2ncnc2c1` and report it.
Return: 28

Enquiry: Find the recorded inhibition at 1 µM belonging to `CCc1nc(C(N)=O)c(Nc2ccc(N3CCC(N4CCN(C)CC4)CC3)c(OC)c2)nc1NC1CCOCC1` and report it.
Return: 52

Enquiry: Find the recorded inhibition at 1 µM belonging to `COC(=O)N[C@@H](C)CNc1nccc(-c2cn(C(C)C)nc2-c2cc(Cl)cc(NS(C)(=O)=O)c2F)n1` and report it.
Return: 0.18

Enquiry: Find the recorded inhibition at 1 µM belonging to `C=CC(=O)N1CCC([C@@H]2CCNc3c(C(N)=O)c(-c4ccc(Oc5ccccc5)cc4)nn32)CC1` and report it.
Return: 5

Enquiry: Find the recorded inhibition at 1 µM belonging to `C[C@H](Nc1ncnc2nc[nH]c12)c1cc2cccc(Cl)c2c(=O)n1-c1ccccc1` and report it.
Return: -3.47

Enquiry: Find the recorded inhibition at 1 µM belonging to `Cn1cnc2c(F)c(Nc3ccc(Br)cc3Cl)c(C(=O)NOCCO)cc21` and report it.
Return: -0.6
